Recorded values, source PubChem BioAssay (NCI).

Reported growth inhibition by item:
- protocol.text: NCI Yeast Anticancer Drug Screen. Data for the mlh1 rad18 strain (AID 175)
- test.settings: S. cerevisiae mlh1 rad18 strain growth inhibition; at 50.0 µM; stronger effect = higher value
Compounds without any hit were thinned out: in the full panel of roughly 79,000, 15% have a hit.
recorded.metric: growth inhibition (%)

{"compound": "Nc1nc(N)c2nc(Sc3ccc(F)cc3)c(N)nc2n1", "recorded.metric": "growth inhibition", "unit.label": "%", "measured.value": 75.1}
{"compound": "CP(=O)(c1ccccc1)c1ccccc1", "recorded.metric": "growth inhibition", "unit.label": "%", "measured.value": 41.8}
{"compound": "O=C1OC(OCC#CCOC2OC(=O)C(Cl)=C2Cl)C(Cl)=C1Cl (stereo unspecified)", "recorded.metric": "growth inhibition", "unit.label": "%", "measured.value": 99.5}
{"compound": "Cc1ccc(C2(O)CCN(Cc3ccccc3)CC2)cc1", "recorded.metric": "growth inhibition", "unit.label": "%", "measured.value": 47}
{"compound": "CCOC(=O)c1ccc(N(CCC(O)CN=[N+]=[N-])S(=O)(=O)c2ccc(C)cc2)cc1 (stereo unspecified)", "recorded.metric": "growth inhibition", "unit.label": "%", "measured.value": 55.1}
{"compound": "CC(C)OP(=O)(OC(C)C)/C(I)=N/Nc1ccc([N+](=O)[O-])cc1", "recorded.metric": "growth inhibition", "unit.label": "%", "measured.value": 70}
{"compound": "O=c1ccc2ccc(Cl)cc2[nH]1", "recorded.metric": "growth inhibition", "unit.label": "%", "measured.value": 4.8}
{"compound": "CN1C(=O)CCC2[C@@H]3CC=C4C[C@@H](O)CC[C@]4(C)C3CC[C@@]21C (stereo partly specified)", "recorded.metric": "growth inhibition", "unit.label": "%", "measured.value": 70.8}
{"compound": "CCN1/C(=C\\c2cc(C)nc(-c3ccccc3)[n+]2C)C=Cc2ccccc21", "recorded.metric": "growth inhibition", "unit.label": "%", "measured.value": 98.7}
{"compound": "CN(C)C1C[C@@H](O[Si](C)(C)C(C)(C)C)C=C1S(=O)(=O)c1ccccc1 (stereo partly specified)", "recorded.metric": "growth inhibition", "unit.label": "%", "measured.value": 58}
{"compound": "N=C(N)c1ccc(SCCCCCSc2ccc(C(=N)N)cc2)cc1", "recorded.metric": "growth inhibition", "unit.label": "%", "measured.value": 72.3}

====

- protocol.text: NCI Yeast Anticancer Drug Screen. Data for the mec2-1 strain (AID 157)
- test.settings: S. cerevisiae mec2-1 strain, at 5.0 µM (retest, dose inferred, filed as 0.5), stronger effect = higher value
Compounds without any hit were thinned out: in the full panel of roughly 79,000, 15% have a hit.
Below is a list of entries, each paired with its recorded growth inhibition value.

{"molecule": "CCc1cccc(CC)c1NC1=C(Cl)C(=O)c2ccccc2C1=O", "unit.label": "%", "growth inhibition": 100}
{"molecule": "CCN(CC)CC(O)c1ccc(/C=C/c2ccc(Cl)cc2)cc1 (centres undefined)", "unit.label": "%", "growth inhibition": 6}
{"molecule": "Cc1ccnc2ccc3ccccc3c12", "unit.label": "%", "growth inhibition": -48}
{"molecule": "CCOC(=O)C1SC(=Nc2cccc(Cl)c2C)N=C1C (centres undefined)", "unit.label": "%", "growth inhibition": 24}
{"molecule": "CC(=O)Oc1c(O)c2ccccc2c2ccccc12", "unit.label": "%", "growth inhibition": -5}
{"molecule": "CC(=O)Oc1ccccc1N(C(C)=O)S(=O)(=O)c1ccc(C)cc1", "unit.label": "%", "growth inhibition": 12}
{"molecule": "Cc1ccc(-c2c(C#N)c(S)n(NS(=O)(=O)c3ccccc3)c(=O)c2C#N)cc1", "unit.label": "%", "growth inhibition": 12}
{"molecule": "Cc1ccccc1C1SCc2nc3ccccc3n21 (centres undefined)", "unit.label": "%", "growth inhibition": -3}
{"molecule": "Cc1nc(Nc2ccc(Cl)cc2)sc1C(=O)Nc1cccc2c(=O)[nH][nH]c(=O)c12", "unit.label": "%", "growth inhibition": 6}
